tested on: Saccharomyces cerevisiae; test: protein stability index of tFT-peptide fusion (C-terminal peptide) (PSI (0-1 scale)); higher = more stable (slower turnover); details: genetic background: cdc34-1; temperature: 37 C;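 note: PSI is a weighted mean of sequencing reads over stability bins, variants kept only with over 10 reads, mCherry proximal and sfGFP distal, peptide attached via GGGS linker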
readout type: protein stability index
Form rule: numeric answer, no unit written next to it.

Answered cases to consult:
YPPLFLLMRGVL ... 0.594
ACIFDMMWFWLF ... 0.692
AYVAPRRALMCS ... 0.422
RTMLSNRIKSFI ... 0.624

Problem: # get_value(readout='protein stability index', item= GRHRRIRYVKTS )
Solution: 0.633

Problem: Also need EGREGGGRGEVL , thanks.
Solution: 0.455

Problem: Also need TFRVLFSVALLV , thanks.
Solution: 0.172

Problem: Also need RGFVVFCIPCFV , thanks.
Solution: 0.301

Problem: Also need EKTKTKRERKIN , thanks.
Solution: 0.576

Problem: Also need MMYTLSMLLRLR , thanks.
Solution: 0.43
